Parameter GI50: see the listing below.
Tested on: LXFL 529
Assay: NCI tumour cell line growth inhibition, 48 h
Active and inactive are the calls of the source. No stated cut-off is given here; in the data, active = GI50 up to about 1.1 µM and inactive = higher.
property-label: GI50

1) C=C1CC2(CCS(=O)(=O)c3ccccc32)OC1=O (stereo unspecified) = 4.4 µM (inactive)
2) CCN(CC)CCNc1ccc2nc(C)n3c4ccc(O)cc4c(=O)c1c23 = 0.78 µM (active)
3) O=C1c2ccccc2N(O)C1(c1ccccc1)C1CCCC=C1N1CCOCC1 (stereo unspecified) = 68.5 µM (inactive)
4) C=C[C@H]1C=Cc2c(OC)cccc2[C@@H]1COP1(=S)NC(C)C(c2ccccc2)O1 (stereo partly specified) = 48.5 µM (inactive)
5) COC(=O)C(=Cc1cc(OC)ccc1OC)C(=O)OC = 16.6 µM (inactive)
6) CC1(C)SCc2nc3ncccc3n21 = > 100 µM (inactive)
